Test system: human fibroblasts
protocol: Marker gene expression by quantitative PCR in human fibroblasts cultured with each single small-molecule compound
Format: cell-based
measurement_parameters: each compound alone in neurobasal medium (DMEM/F12, N2, B27, bFGF, EGF), markers nestin, sox1, sox2, pax6
Source text: […]
value_kind: expressions of the neural stem cell marker genes

substance_smiles	recorded_result
Cc1cccc(-c2nn(C(=S)Nc3ccccc3)cc2-c2ccnc3ccccc23)n1	distinctly increased
O=C(NCc1ccccc1)c1csc(Nc2ccncn2)n1	distinctly increased
Cc1cnc(-c2cnc(NCCNc3ccc(C#N)cn3)nc2-c2ccc(Cl)cc2Cl)[nH]1	distinctly increased
NC(=O)c1ccc(-c2nc(-c3ccc4c(c3)OCO4)c(-c3ccccn3)[nH]2)cc1	distinctly increased
Nc1nccc2c1ncn2[C@@H]1C=C(CO)[C@@H](O)[C@H]1O	distinctly increased

Query block: Item `Nc1ncn([C@@H]2O[C@H](CO)[C@@H](O)[C@H]2O)c(=O)n1` with human fibroblasts - expressions of the neural stem cell marker genes?
Result block: distinctly increased

Query block: Okay, and `CCCC(CCC)C(=O)O` ?
Result block: distinctly increased

Taken from patent US10711245B2.
